System: HOP-92 NSCLC
Test Details: NCI-60 one-dose screen, 48 h
Measurement Context: 10 µM unless noted
This is part of a sample that, as a whole, favours compounds with a hit. Of some 83,000 tested, about 20% had one in any assay. Activity calls are given as the source filed them. How the source made its calls: active means growth percent below 10; inactive means the rest.
Answer with one of the outcomes active, inactive

[[record]]
compound = "CN1C(=O)CCC(N2C(=O)c3cccc(NCCOCCOCCNC(=O)c4cc5c(o4)C(=O)c4ccccc4C5=O)c3C2=O)C1=O (centres undefined)"
class = "inactive"

[[record]]
compound = "C[C@]12CCC(=O)C[C@H]1CC[C@@H]1[C@@H]2CC[C@@]2(C)[C@H]1CC[C@]2(O)C(=O)CO"
class = "inactive"

[[record]]
compound = "O=C1CSC(c2ccccc2)N1c1ccccc1 (centres undefined)"
class = "inactive"

[[record]]
compound = "C=C(C)[C@@H]1CC[C@]2(CN)CC[C@]3(C)[C@H](CC[C@@H]4[C@@]5(C)CCC(N)[C@@](C)(CO)[C@@H]5CC[C@]43C)[C@@H]12 (some centres undefined)"
class = "inactive"


Problem: Look up the recorded call for `CC(=O)Nc1nccs1` in this test.
Result: inactive

Problem: Look up the recorded call for `CN(C)c1ccc2cc(-c3ccccc3F)c(N)nc2c1` in this test.
Result: inactive

Problem: Look up the recorded call for `CS(=O)(=O)c1ccc(-c2[nH]c3ccc(F)cc3c2/C=N/NC(N)=S)cc1` in this test.
Result: inactive

Problem: Look up the recorded call for `CN1CCC(=C2c3ccccc3C=Cc3ccccc32)CC1` in this test.
Result: inactive

Problem: Look up the recorded call for `COc1ccc(-c2nc3sccn3c2/C=C/C(=O)c2c[nH]c3ccccc23)cc1` in this test.
Result: active
